method description: Partition coefficient, log P of the compound
Format: physicochemical
condition context: octanol/water
Attribute: logP
observed property: logP

[[record]]
chem_smiles = "Cc1ccc(S(=O)(=O)n2cc([C@@]3(O)C[C@H](CSC#N)OC3=O)c3ccccc32)cc1"
observed_property = "logP"
reported_measurement = 1.78

[[record]]
chem_smiles = "CCSC[C@H]1C[C@](O)(c2cn(S(=O)(=O)c3ccc(C)cc3)c3ccccc23)C(=O)O1"
observed_property = "logP"
reported_measurement = 2.38

[[record]]
chem_smiles = "Cc1ccc(S(=O)(=O)n2cc([C@@]3(O)C[C@H](CI)OC3=O)c3ccccc32)cc1"
observed_property = "logP"
reported_measurement = 2.49

